Listed here are sequences together with their documented PBM binding z-score.
# Tested on: PPARa:RXRa (NR concentration 270 nM, RXRa partner concentration 90 nM)
# procedure.text: PBM binding z-score (relative to random genomic background probes); higher = stronger binding; sequences stand for … in GC…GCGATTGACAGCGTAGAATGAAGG
// no unit string in output, number only

Recorded PBM binding z-score, per entry:
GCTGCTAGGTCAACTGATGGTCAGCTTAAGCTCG :: 3.5
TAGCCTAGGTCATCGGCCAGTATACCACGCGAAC :: 3.56
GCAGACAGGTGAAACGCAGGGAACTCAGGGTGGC :: 0.613
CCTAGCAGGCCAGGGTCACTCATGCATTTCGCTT :: 2.91
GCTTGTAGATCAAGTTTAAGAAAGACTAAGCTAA :: 0.142
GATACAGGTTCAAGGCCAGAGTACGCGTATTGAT :: 2.72
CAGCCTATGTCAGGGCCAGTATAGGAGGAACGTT :: -0.324
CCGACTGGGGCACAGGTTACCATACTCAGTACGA :: 2.71

Sample "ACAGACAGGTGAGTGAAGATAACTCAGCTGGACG" ; PBM binding z-score observed: -0.453

Sample "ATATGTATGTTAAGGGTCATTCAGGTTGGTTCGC" ; PBM binding z-score observed: 5.66

---

# Test system: RARa homodimer (NR concentration 270 nM)
# procedure.text: PBM binding z-score (relative to random genomic background probes); higher = stronger binding; sequences stand for … in GC…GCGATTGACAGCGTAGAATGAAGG
So basically: PBM binding z-score at 0.8 or higher? That is T. Lower than 0.8? That is F.

Input: Please check the record "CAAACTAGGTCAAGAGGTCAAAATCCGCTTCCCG" and state if its PBM binding z-score is at or above 0.8.
Output: T

---

# Test system: FXR:RXRa (NR concentration 270 nM, RXRa partner concentration 90 nM)
# procedure.text: PBM binding z-score (relative to random genomic background probes); higher = stronger binding; sequences stand for … in GC…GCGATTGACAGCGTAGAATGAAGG
Listed here are sequences together with their documented PBM binding z-score.
// no unit string in output, number only

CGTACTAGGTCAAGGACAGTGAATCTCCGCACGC :: 3.26
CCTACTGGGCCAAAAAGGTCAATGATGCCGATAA :: 2.77
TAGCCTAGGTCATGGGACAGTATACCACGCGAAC :: 5.01

Now look at this one.
Sample "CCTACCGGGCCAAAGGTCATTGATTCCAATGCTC" ; PBM binding z-score observed: 4.82

---

# Test system: VDR:RXRa (NR concentration 270 nM, RXRa partner concentration 90 nM)
# procedure.text: PBM binding z-score (relative to random genomic background probes); higher = stronger binding; sequences stand for … in GC…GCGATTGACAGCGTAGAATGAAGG
assay.metric: PBM binding z-score
// no unit string in output, number only

Recorded PBM binding z-score, per entry:
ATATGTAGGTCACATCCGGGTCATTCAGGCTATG :: 6.03
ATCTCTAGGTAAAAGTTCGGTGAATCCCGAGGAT :: 0.449
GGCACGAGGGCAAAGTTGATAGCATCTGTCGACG :: 1.23
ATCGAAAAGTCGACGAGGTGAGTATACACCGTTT :: 0.461
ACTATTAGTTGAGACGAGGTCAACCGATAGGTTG :: 4.47

Now look at this one.
Sample "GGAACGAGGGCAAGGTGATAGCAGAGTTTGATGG" ; PBM binding z-score observed: 0.867

These measurements were taken from the supplement of paper PMC6555819.
